- measurement_notes: Oral bioavailability in Sprague-Dawley rat at 3 mg/kg
- Format: ADME, organism-based
- conditions_used: in vivo
endpoint_name: bioavailability (%)
Write it as a number; the unit % goes unstated.

What measured bioavailability goes with `O=C(Nc1c(F)cc2c(c1F)CCC(F)(F)[C@@H]2O)c1cc2cc(Cl)ccc2[nH]1` ? 100

---

- measurement_notes: AUC (0 to infinity) in Sprague-Dawley rat at 3 mg/kg, po
- Assay type: ADME, organism-based
- Design: time infinity, dose 3 mg/kg, route oral
- conditions_used: plasma
endpoint_name: AUC(0-inf) (ng·h/mL)
Write it as a number; the unit ng·h/mL goes unstated.

What measured AUC(0-inf) goes with `O=C(Nc1c(F)cc2c(c1F)CCC(F)(F)[C@@H]2O)c1cc2cc(Cl)ccc2[nH]1` ? 2780

This collection of values is drawn from ChEMBL document CHEMBL1151693.
